Measured Chymotrypsin at 100 μM % accompanies every entry in the list below.
test_target: Chymotrypsin, from human pancreas (Homo sapiens, UniProt P17538)
Sequence (P17538 19-263): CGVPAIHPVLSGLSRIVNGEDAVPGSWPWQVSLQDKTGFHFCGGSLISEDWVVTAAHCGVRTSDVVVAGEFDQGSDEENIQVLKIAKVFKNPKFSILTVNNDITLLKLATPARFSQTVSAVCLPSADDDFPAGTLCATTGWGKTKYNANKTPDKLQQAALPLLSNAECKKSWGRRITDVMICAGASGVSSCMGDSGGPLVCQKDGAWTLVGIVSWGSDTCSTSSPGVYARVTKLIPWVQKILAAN
assay_comment: Enzymatic assay, chymotrypsin
condition_info: at 100 μM
Where a SMILES comes first, the peptide text is derived from it.
Express the result in % but write the number alone.

compound: CCCC[C@@H]1NC(=O)[C@@H]2CCCN2C(=O)[C@@H]2CCCN2C(=O)[C@H](CC(=O)O)NC(=O)[C@H](CO)NC(=O)[C@H](CCCCN)NC(=O)[C@H]([C@@H](C)O)NC(=O)[C@@H]2CSSC[C@H](NC1=O)C(=O)N[C@@H](CCCNC(=N)N)C(=O)N1CCC[C@@H]1C(=O)N1CCC[C@H]1C(=O)N[C@@H]([C@@H](C)CC)C(=O)N2 [Ex. 19] (HELM PEPTIDE1{I.C.T.K.S.D.P.P.[Nle].C.R.[dP].P}$PEPTIDE1,PEPTIDE1,2:R3-10:R3|PEPTIDE1,PEPTIDE1,1:R1-13:R2$$$V2.0)
Chymotrypsin at 100 μM % (%): 0

Now, please, on to the next compound.
Value of Chymotrypsin at 100 μM % reported for the compound C[C@@H](O)[C@@H]1NC(=O)[C@@H]2CSSC[C@H](NC(=O)[C@H](CC3CCCCC3)NC(=O)[C@@H]3CCCN3C(=O)[C@@H]3CCCN3C(=O)[C@H](CC(=O)O)NC(=O)[C@H](CO)NC(=O)[C@H](CCCCN)NC1=O)C(=O)N[C@@H](CO)C(=O)N1CCC[C@@H]1C(=O)N1CCC[C@H]1C(=O)N[C@@H](Cc1ccccc1)C(=O)N2 [compound 54] (HELM PEPTIDE1{F.C.T.K.S.D.P.P.[Cha].C.S.[dP].P}$PEPTIDE1,PEPTIDE1,2:R3-10:R3|PEPTIDE1,PEPTIDE1,1:R1-13:R2$$$V2.0) is 18

---

Measured Chymase at 100 μM % accompanies every entry in the list below.
test_target: Chymase, from human skin (Homo sapiens)
Sequence (P23946 22-247): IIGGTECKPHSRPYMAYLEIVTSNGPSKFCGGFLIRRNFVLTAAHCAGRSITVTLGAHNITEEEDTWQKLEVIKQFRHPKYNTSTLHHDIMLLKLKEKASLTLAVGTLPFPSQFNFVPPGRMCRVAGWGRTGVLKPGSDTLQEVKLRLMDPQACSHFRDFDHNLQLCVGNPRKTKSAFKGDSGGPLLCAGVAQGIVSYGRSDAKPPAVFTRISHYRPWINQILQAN
assay_comment: Enzymatic assay, chymase
Where a SMILES comes first, the peptide text is derived from it.
Express the result in % but write the number alone.

Look over these answered cases.
compound: CC[C@H](C)[C@@H]1NC(=O)[C@@H]2CCCN2C(=O)[C@@H]2CCCN2C(=O)[C@H](CC(=O)O)NC(=O)[C@H](CO)NC(=O)[C@H](CCCCN)NC(=O)[C@H]([C@@H](C)O)NC(=O)[C@@H]2CSSC[C@H](NC1=O)C(=O)N[C@@H]([C@@H](C)O)C(=O)N1CCC[C@@H]1C(=O)N1CCC[C@H]1C(=O)N[C@@H](CCc1ccccc1)C(=O)N2 [Ex. 28] (HELM PEPTIDE1{[O=C([C@H](CCc1ccccc1)N[*:1])[*:2]].C.T.K.S.D.P.P.I.C.T.[dP].P}$PEPTIDE1,PEPTIDE1,2:R3-10:R3|PEPTIDE1,PEPTIDE1,1:R1-13:R2$$$V2.0)
Chymase at 100 μM % [%]: 0

compound: CCCC[C@@H]1NC(=O)[C@@H]2CCCN2C(=O)[C@H]2CCCN2C(=O)[C@H](Cc2ccccc2)NC(=O)[C@@H]2CSSC[C@H](NC1=O)C(=O)N[C@@H]([C@@H](C)O)C(=O)N[C@@H](C)C(=O)N[C@@H](CO)C(=O)N[C@@H]([C@@H](C)CC)C(=O)N1CCC[C@H]1C(=O)N1CCC[C@H]1C(=O)N[C@@H](CCC(N)=O)C(=O)N2 [Ex. 90] (HELM PEPTIDE1{[Nle].C.T.A.S.I.P.P.Q.C.F.[dP].P}$PEPTIDE1,PEPTIDE1,2:R3-10:R3|PEPTIDE1,PEPTIDE1,1:R1-13:R2$$$V2.0)
Chymase at 100 μM % [%]: 0

compound: CC[C@H](C)[C@@H]1NC(=O)[C@@H]2CCCN2C(=O)[C@@H]2CCCN2C(=O)[C@H](CC(=O)O)NC(=O)[C@H](CO)NC(=O)[C@H](CCCCN)NC(=O)[C@H]([C@@H](C)O)NC(=O)[C@@H]2CSSC[C@H](NC1=O)C(=O)N[C@@H](Cc1ccccc1)C(=O)N1CCC[C@@H]1C(=O)N1CCC[C@H]1C(=O)N[C@@H](CCCNC(=N)N)C(=O)N2 [Ex. 75] (HELM PEPTIDE1{R.C.T.K.S.D.P.P.I.C.F.[dP].P}$PEPTIDE1,PEPTIDE1,2:R3-10:R3|PEPTIDE1,PEPTIDE1,1:R1-13:R2$$$V2.0)
Chymase at 100 μM % [%]: 0

Value of Chymase at 100 μM % reported for the compound CCCC[C@@H]1NC(=O)[C@@H]2CCCN2C(=O)[C@H]2CCCN2C(=O)[C@H](CO)NC(=O)[C@@H]2CSSC[C@H](NC1=O)C(=O)N[C@@H]([C@@H](C)O)C(=O)N[C@@H](CCCCN)C(=O)N[C@@H](CO)C(=O)N[C@@H](CC(=O)O)C(=O)N1CCC[C@H]1C(=O)N1CCC[C@H]1C(=O)N[C@@H]([C@@H](C)CC)C(=O)N2 [Ex. 10] (HELM PEPTIDE1{[Nle].C.T.K.S.D.P.P.I.C.S.[dP].P}$PEPTIDE1,PEPTIDE1,2:R3-10:R3|PEPTIDE1,PEPTIDE1,1:R1-13:R2$$$V2.0) is 9.4
